# pIC50 values compiled below
ASSAY SYSTEM: VLA4 (Homo sapiens, UniProt P05556+P13612)
Construct: endogenous in cells; host or cells: Ramos cells
Sequence (P13612 34-1032): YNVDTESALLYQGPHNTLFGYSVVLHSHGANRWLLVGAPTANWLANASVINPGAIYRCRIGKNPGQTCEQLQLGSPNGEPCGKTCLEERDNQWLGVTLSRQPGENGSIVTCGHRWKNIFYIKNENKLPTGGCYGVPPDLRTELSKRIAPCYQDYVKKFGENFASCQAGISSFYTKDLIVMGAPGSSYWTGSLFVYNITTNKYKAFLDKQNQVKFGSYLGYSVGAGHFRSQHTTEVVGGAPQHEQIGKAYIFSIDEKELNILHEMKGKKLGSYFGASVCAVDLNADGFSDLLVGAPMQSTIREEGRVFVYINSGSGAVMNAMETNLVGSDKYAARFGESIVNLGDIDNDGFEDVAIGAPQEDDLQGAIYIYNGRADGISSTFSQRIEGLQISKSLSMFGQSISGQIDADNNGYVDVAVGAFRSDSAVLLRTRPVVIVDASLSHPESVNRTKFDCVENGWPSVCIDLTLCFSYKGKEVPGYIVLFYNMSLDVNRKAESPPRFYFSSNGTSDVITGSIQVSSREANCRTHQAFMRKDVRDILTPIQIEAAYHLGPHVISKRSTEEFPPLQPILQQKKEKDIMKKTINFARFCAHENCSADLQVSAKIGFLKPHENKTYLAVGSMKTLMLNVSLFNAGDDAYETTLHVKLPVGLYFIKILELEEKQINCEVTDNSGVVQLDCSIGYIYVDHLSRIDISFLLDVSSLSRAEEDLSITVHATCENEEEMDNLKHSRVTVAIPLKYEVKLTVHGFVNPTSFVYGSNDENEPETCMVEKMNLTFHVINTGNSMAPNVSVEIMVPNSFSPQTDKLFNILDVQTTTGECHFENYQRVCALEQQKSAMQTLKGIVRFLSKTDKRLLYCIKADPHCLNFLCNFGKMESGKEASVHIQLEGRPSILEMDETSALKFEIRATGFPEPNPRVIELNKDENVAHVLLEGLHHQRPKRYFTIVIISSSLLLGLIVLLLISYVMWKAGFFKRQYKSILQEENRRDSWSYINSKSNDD
Sequence (P05556 21-798): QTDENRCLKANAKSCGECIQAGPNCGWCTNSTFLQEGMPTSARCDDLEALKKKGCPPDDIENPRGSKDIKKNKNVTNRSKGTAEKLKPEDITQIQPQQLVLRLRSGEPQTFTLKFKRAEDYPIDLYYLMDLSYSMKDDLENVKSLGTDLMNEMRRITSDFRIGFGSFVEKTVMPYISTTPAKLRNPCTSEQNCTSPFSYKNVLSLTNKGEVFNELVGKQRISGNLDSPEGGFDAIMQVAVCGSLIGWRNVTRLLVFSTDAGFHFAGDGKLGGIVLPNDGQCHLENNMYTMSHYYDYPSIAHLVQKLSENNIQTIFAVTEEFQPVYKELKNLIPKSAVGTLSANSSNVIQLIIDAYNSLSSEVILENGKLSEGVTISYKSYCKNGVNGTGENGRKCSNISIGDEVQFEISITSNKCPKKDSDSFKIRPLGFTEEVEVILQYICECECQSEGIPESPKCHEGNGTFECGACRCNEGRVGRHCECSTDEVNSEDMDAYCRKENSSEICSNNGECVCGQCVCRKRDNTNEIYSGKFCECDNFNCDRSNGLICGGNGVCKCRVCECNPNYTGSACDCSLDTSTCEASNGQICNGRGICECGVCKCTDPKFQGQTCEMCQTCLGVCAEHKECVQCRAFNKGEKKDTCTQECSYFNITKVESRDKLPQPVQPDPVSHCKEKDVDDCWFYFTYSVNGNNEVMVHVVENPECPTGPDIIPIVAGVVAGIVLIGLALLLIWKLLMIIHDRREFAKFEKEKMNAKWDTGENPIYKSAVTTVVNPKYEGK
TEST PROTOCOL: Inhibition of VLA4-dependent adhesion to BSA-CS1
Type: cell-based
STATED CONDITIONS: binding of BCECF-labelled Ramos cells to BSA-CS1 coated wells, 2 mM MnCl2; read-out: IC50
pIC50: −log10 of the molar value. Square brackets hold non-standard residues; d marks the D form. Peptide text beside a SMILES is read from it. * marks the point of attachment. ξ: configuration not given here. ξTic = O=C(O)C1Cc2ccccc2CN1; PhAc = O=C(Cc1ccccc1)*; Aib = CC(C)(N)C(=O)O
MEASURED PROPERTY: pIC50

>>> observed_value("CNC(=O)C(C)(C)NC(=O)[C@H](CC(=O)O)NC(=O)[C@H](CC(C)C)NC(=O)Cc1ccccc1 [Compound 351] (PhAc-Leu-Asp-[Aib]-NHMe)")
"< 5.00"
>>> observed_value("Cc1ccccc1NC(=O)Nc1ccc(CC(=O)N[C@@H](CO)C(=O)N[C@@H](CC(=O)O)C(=O)N[C@H](CC(C)C)C(N)=O)cc1")
"> 7.30"
>>> observed_value("CNC(=O)C(C)(C)NC(=O)[C@H](CC(=O)O)NC(=O)[C@H](CC(C)C)NC(=O)c1ccc2ccccc2n1")
"< 5.00"
>>> observed_value("CC(C)CC(NC(=O)CCc1ccc(O)cc1)C(=O)NC(CC(=O)O)C(=O)NCC1CCCCC1 (stereo not drawn)")
"< 5.00"
>>> observed_value("CNC(=O)[C@@H](CC(C)C)NC(=O)[C@H](CCC(=O)O)NC(=O)[C@@H]1CCCN1C(=O)Cc1ccc(NC(=O)Nc2ccccc2C)cc1")
"5.00 to 7.30"
>>> observed_value("CC(C)C[C@H](NC(=O)[C@H](CC(=O)O)NC(=O)[C@H](CC(C)C)NC(=O)C1Cc2ccccc2CN1)C(=O)O (stereo partly drawn) [Compound 90] (H-[ξTic]LDL-OH)")
"< 5.00"
